molecular target: human μ opioid receptor (OPRM1) (Homo sapiens); assay: cell-based; type: cell-based; conditions: OPRM1, read-out: MOR cAMP %Emax ± SEM
Sequence (P35372 whole entry): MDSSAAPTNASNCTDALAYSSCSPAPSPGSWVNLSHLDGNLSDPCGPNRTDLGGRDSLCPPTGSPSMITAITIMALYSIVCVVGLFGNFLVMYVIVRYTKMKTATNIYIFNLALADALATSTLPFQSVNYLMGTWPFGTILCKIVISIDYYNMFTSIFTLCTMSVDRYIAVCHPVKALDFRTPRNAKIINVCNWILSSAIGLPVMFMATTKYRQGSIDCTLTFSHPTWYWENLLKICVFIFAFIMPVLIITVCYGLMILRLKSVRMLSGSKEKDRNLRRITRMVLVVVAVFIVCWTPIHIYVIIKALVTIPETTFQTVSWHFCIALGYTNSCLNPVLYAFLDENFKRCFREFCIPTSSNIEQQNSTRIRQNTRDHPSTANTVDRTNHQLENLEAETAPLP
quantity-kind: Emax

Value of measured Emax for the entry c1ccc(CCCN2CC3CCC(C2)N3c2cccc(-c3ncco3)c2)cc1 : 100%

The recorded Emax for Oc1cc(Cl)cc(N2C3CCC2CN(CCCc2ccccc2)C3)c1 is 99.6%

The compound OC1(c2cccc(N3C4CCC3CN(CCCc3ccccc3)C4)c2)COC1 showed Emax equal to 103%

Emax measured on FC(F)c1cccc(N2C3CCC2CN(CCCc2ccccc2)C3)c1 = 103%

Entry Nc1cccc(N2C3CCC2CN(CCCc2ccccc2)C3)c1 , Emax reported as 104%

For record Oc1cc(F)cc(N2C3CCC2CN(CCCc2ccccc2)C3)c1 the listed Emax is 99.9%

Please fill in: Emax reported for O=S(=O)(Nc1cccc(N2C3CCC2CN(CCCc2ccccc2)C3)c1)C1CC1 = 98.8%

Input OCc1cccc(N2C3CCC2CN(CCCc2ccccc2)C3)c1 . Output Emax: 102%

Input O=[N+]([O-])c1cccc(N2C3CCC2CN(CCCc2ccccc2)C3)c1 . Output Emax: 101%
